Hello, the source for this data is patent US20240317847A1, in case you need it.

System Tested: T1, murine IL-11 (mouse, UniProt P47873 22-199)
T1 sequence: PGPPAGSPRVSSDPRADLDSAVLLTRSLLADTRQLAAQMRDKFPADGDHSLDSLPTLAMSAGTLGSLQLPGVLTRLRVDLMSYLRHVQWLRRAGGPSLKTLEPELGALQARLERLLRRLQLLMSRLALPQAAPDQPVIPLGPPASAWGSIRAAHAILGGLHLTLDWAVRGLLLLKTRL
Experiment Description: cell-based or functional assay
Metric: RGA IC50 (nM)
Give the value, in units of nM, as a plain number.

Examples with their reported RGA IC50 follow.
TPP-26331 (antibody, V domains shown) VH: EVQLLESGGGLVQPGGSLRLSCAASGFTFSSYGGHWVRQAPGKGLEWVSVISYDGSYKYYADSVKGRFTISRDNSKNTLYLQMNSLRAEDTAVYYCAAGVPDYWGQGTLVTVSS VL: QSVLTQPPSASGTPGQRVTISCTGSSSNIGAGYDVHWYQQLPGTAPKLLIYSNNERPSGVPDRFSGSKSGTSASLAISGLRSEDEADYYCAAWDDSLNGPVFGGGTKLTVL | 1.5
TPP-26320 (antibody, V domains shown) VH: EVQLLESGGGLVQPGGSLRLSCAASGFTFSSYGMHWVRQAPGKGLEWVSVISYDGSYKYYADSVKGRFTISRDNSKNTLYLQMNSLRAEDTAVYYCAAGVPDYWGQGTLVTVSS VL: QSVLTQPPSASGTPGQRVTISCTGSSSNIGAGYDVHWYQQLPGTAPKLLIYSNEERPSGVPDRFSGSKSGTSASLAISGLRSEDEADYYCAAWDDSLNGPVFGGGTKLTVL | 1.5
TPP-26301 (antibody, V domains shown) VH: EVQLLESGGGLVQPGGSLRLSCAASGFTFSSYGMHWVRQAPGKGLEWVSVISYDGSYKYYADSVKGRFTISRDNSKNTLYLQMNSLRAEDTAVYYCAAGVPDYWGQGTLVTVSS VL: QSVLTQPPSASGTPGQRVTISCTGSSSNIGADYDVHWYQQLPGTAPKLLIYSNNERPSGVPDRFSGSKSGTSASLAISGLRSEDEADYYCAAWDDSLNGPVFGGGTKLTVL | 1.5
TPP-26323 (antibody, V domains shown) VH: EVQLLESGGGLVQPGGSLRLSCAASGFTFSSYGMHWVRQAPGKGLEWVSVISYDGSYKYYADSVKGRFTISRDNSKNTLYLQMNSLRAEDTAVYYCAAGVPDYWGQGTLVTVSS VL: QSVLTQPPSASGTPGQRVTISCTGSSSNIGAGYDVHWYQQLPGTAPKLLIYSNNERPSGVPDRFSGSKSGTSASLAISGLRSEDEADYYCAAWDGSLNGPVFGGGTKLTVL | 0.92
TPP-26316 (antibody, V domains shown) VH: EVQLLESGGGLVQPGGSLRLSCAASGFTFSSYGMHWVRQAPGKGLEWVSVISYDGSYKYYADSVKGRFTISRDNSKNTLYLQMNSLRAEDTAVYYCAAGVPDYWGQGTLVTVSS VL: QSVLTQPPSASGTPGQRVTISCTGSSSNIGAGYDVHWYQQLPGTAPKLLIYSNNERPSGVPDRFSGSKSGTSASLAISGLRSEDEADYYCAAWDMSLNGPVFGGGTKLTVL | 1
TPP-26299 (antibody, V domains shown) VH: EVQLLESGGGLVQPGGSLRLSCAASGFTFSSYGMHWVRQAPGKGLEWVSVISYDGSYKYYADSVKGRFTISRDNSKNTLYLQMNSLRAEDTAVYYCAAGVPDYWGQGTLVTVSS VL: QSVLTQPPSASGTPGQRVTISCTGSSSNIGAGYDVHWYQQLPGTAPKLLIYSNNERPSGVPDRFSGSKSGTSASLAISGLRSEDEADYYCAAWDDSLYGPVFGGGTKLTVL | 0.94
TPP-26317 (antibody, V domains shown) VH: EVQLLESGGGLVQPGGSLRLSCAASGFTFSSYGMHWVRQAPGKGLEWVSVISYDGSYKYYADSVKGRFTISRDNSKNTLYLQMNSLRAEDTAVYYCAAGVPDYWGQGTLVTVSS VL: QSVLTQPPSASGTPGQRVTISCTGSSSNIGAEYDVHWYQQLPGTAPKLLIYSNNERPSGVPDRFSGSKSGTSASLAISGLRSEDEADYYCAAWDDSLNGPVFGGGTKLTVL | 1.2
TPP-26313 (antibody, V domains shown) VH: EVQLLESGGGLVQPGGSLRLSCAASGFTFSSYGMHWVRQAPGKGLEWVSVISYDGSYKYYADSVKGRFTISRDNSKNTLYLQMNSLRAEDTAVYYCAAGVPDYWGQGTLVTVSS VL: QSVLTQPPSASGTPGQRVTISCTGSSSNIGAYYDVHWYQQLPGTAPKLLIYSNNERPSGVPDRFSGSKSGTSASLAISGLRSEDEADYYCAAWDDSLNGPVFGGGTKLTVL | 0.66

Prompt: Name the recorded RGA IC50 for TPP-26330 (antibody, V domains shown) VH: EVQLLESGGGLVQPGGSLRLSCAASGFTFSFYGMHWVRQAPGKGLEWVSVISYDGSYKYYADSVKGRFTISRDNSKNTLYLQMNSLRAEDTAVYYCAAGVPDYWGQGTLVTVSS VL: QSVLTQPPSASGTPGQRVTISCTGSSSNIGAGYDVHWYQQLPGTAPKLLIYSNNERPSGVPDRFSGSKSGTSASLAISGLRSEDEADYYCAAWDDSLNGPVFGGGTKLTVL .
Completion: 1.3

Prompt: Any idea what its RGA IC50 is? The binder is TPP-26325 (antibody, V domains shown) VH: EVQLLESGGGLVQPGGSLRLSCAASGFTFSWYGMHWVRQAPGKGLEWVSVISYDGSYKYYADSVKGRFTISRDNSKNTLYLQMNSLRAEDTAVYYCAAGVPDYWGQGTLVTVSS VL: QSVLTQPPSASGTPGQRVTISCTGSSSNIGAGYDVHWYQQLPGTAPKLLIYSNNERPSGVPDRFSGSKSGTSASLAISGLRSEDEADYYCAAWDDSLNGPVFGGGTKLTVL
Completion: 1.3
